measurementType: melting point

- compound: "O=c1cc(N2CCCCC2)sn1CCc1ccccc1"
  reportedValue: "106 to 108 °C"
- compound: "CC(=O)c1cn(C)cc(-c2cccc(Br)c2)c1=O"
  reportedValue: "192 to 194 °C"
- compound: "COC(=O)COc1cccc2c(O)c(C(C)=O)ccc12"
  reportedValue: "130 to 135 °C"
- compound: "c1ccc(-c2ccc(-c3cn([C@H]4CN5CCC4CC5)nn3)s2)cc1"
  reportedValue: "184 °C"
- compound: "O=C1C[C@@H]2[C@@H](/C=C/[C@H](O)CCc3ccccc3)[C@H](OC(=O)c3ccc(-c4ccccc4)cc3)C[C@@H]2O1"
  reportedValue: "81 to 83 °C"
- compound: "CCc1c(Br)c(C#N)nn1C"
  reportedValue: "72 to 74 °C"
- compound: "CN(C)CC1CNc2cc(Cl)ccc2C1 (stereo unspecified)"
  reportedValue: "107 to 110 °C"
- compound: "Nc1cc(Br)nc(CO)c1"
  reportedValue: "144 to 145 °C"
- compound: "CC(C)Cc1nc2sc3c(NCc4cccnc4)ncnc3c2c2c1CCC(C)(C)C2"
  reportedValue: "230 °C"
- compound: "C=CCCOc1ccc(C(=O)Oc2ccc3ccc(=O)oc3c2)cc1"
  reportedValue: "108 to 109 °C"
- compound: "COc1ccc(CNC(=O)C(Cc2ccccc2)NC(=O)Nc2n[nH]c(=S)s2)cc1OC (stereo unspecified)"
  reportedValue: "207 to 210 °C"
- compound: "CCOC(=O)c1nc2ccccc2nc1CC"
  reportedValue: "53 to 54 °C"
- compound: "O=C1CC(c2cccc(-n3cnnc3)c2)=Nc2ccc(-c3ccccc3F)cc2N1"
  reportedValue: "198 °C"
- compound: "Cc1ccc2cc(-c3cccc4ccccc34)ccc2n1"
  reportedValue: "111 °C"
- compound: "O=C1NCCN1C1CCN(CC(O)COc2cccnc2Cl)CC1 (stereo unspecified)"
  reportedValue: "163 to 166 °C"
- compound: "COc1cc(N)ccc1-c1ccccc1"
  reportedValue: "56 °C"
- compound: "CCCc1nn(C)c2c(=O)[nH]c(Cc3ccc(NC(C)=O)cc3)nc12"
  reportedValue: "272 to 275 °C"
- compound: "O=[N+]([O-])c1ccc(Oc2ccc(Cl)cc2)cc1"
  reportedValue: "67 to 70 °C"
- compound: "Cn1nccc1C(=O)Nc1cc(Oc2ccc3nc(NC(=O)C4CC4)cn3n2)ccc1F"
  reportedValue: "253 °C"
- compound: "CN(C)CC(C)(C)CNc1nccc(-c2c(-c3ccc(F)cc3Cl)nc3occn23)n1"
  reportedValue: "124 to 126 °C"
- compound: "COc1cc2c(cc1OC)CN(NC1=NCCN1)C2"
  reportedValue: "191 to 192 °C"
- compound: "Cc1cccc(C2CCCN2S(=O)(=O)c2ccc(F)cc2)c1 (racemic)"
  reportedValue: "80 °C"
- compound: "Oc1ccc(CCNCC(O)c2ccc(OCc3ccccc3)cc2)cc1OCc1ccccc1 (stereo unspecified)"
  reportedValue: "124 to 125 °C"
- compound: "O=c1c2cc(F)c(N3CCCC3)cc2n(-c2ccc(F)cc2F)c(=O)n1OCc1ccccc1"
  reportedValue: "212 to 214 °C"
- compound: "CS(=O)(=O)N(Cc1cccnc1)c1ccc(Cl)cc1"
  reportedValue: "138 to 140 °C"
- compound: "CC1(C)C=C(n2cccnc2=O)c2cc(C#N)ccc2O1"
  reportedValue: "250 to 252 °C"
- compound: "CCOc1cc(C(CC#N)N2Cc3c(Cl)ccc(NC(=O)C4CC4)c3C2=O)ccc1OC (stereo unspecified)"
  reportedValue: "200 to 202 °C"
- compound: "CC(=O)Nc1cscn1"
  reportedValue: "176 °C"
- compound: "Fc1ccc(-c2cc(CCC#Cc3ccccn3)on2)cc1"
  reportedValue: "83 to 84 °C"
- compound: "O=C(NN1CCCNC1=O)OCc1ccccc1"
  reportedValue: "161 to 163 °C"
- compound: "CC(=O)OC1CSC(Oc2ccc(-c3cncnc3)nc2)C(OC(C)=O)C1OC(C)=O (stereo unspecified)"
  reportedValue: "215 °C"
